# credit: ChEMBL document CHEMBL1156466

biological target: Sodium/hydrogen exchanger 1 (Homo sapiens, UniProt P19634); assay: Inhibition of human wild type NHE1 expressed in chinese hamster AP1 cells assessed as intracellular pHi recovery by ammonium chloride prepulse protocol
Sequence (P19634 whole entry): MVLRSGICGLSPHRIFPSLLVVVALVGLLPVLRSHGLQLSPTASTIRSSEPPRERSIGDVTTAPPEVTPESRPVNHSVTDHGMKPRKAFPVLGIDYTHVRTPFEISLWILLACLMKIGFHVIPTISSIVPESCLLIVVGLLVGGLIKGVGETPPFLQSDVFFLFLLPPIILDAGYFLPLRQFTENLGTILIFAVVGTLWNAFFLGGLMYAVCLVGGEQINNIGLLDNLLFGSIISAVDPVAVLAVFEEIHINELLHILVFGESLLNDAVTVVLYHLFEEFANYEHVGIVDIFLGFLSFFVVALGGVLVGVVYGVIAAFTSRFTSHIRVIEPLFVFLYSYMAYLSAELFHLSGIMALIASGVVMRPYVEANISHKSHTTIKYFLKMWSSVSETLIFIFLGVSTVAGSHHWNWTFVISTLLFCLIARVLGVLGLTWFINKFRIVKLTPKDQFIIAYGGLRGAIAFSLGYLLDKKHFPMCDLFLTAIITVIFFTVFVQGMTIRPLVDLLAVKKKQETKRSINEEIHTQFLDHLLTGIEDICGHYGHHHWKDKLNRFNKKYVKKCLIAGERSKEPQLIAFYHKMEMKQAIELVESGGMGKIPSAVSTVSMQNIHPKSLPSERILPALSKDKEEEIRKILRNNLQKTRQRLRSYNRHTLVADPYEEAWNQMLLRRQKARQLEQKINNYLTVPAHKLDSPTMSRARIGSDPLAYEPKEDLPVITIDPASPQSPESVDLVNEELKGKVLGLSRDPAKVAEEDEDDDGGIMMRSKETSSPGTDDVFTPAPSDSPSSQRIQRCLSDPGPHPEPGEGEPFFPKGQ
Measured Property: pIC50
Answers are plain numbers, as −log10 of the molar value.

Input: Tell us which pIC50 value is on record for CCN(c1nc(N)c(C(=O)NC(=N)N)nc1Cl)C(C)C [5-(N-ETHYL-N-ISOPROPYL)AMILORIDE]
Output: 6.10

###

assay: Inhibition of Pleuronectes americanus NHE1 TM4 mutant containing VFFLF sequence of human expressed in chinese hamster AP1 cells assessed as intracellular pHi recovery by ammonium chloride prepulse protocol; format: cell-based
I'd be grateful if you could share measured pIC50 for these entries.
Numbers only, as −log10 of the molar value.

N=C(N)NC(=O)c1nc(Cl)c(N)nc1N [AMILORIDE] :: 3.93

Input: Report pIC50 for CCN(c1nc(N)c(C(=O)NC(=N)N)nc1Cl)C(C)C [5-(N-ETHYL-N-ISOPROPYL)AMILORIDE]
Output: 6.04

###

experiment: Inhibition of Pleuronectes americanus NHE1 mutant containing TM10-12 domain of Amphiuma tridactylum expressed in chinese hamster AP1 cells assessed as intracellular pHi recovery by ammonium chloride prepulse protocol; format: cell-based
Measured Property: IC50
The number alone won't do; follow it with the unit.

N=C(N)NC(=O)c1nc(Cl)c(N)nc1N [AMILORIDE] :: 137 µM

Read the next record carefully.
Input: Dear colleague, please send me the reported IC50 for CCN(c1nc(N)c(C(=O)NC(=N)N)nc1Cl)C(C)C [5-(N-ETHYL-N-ISOPROPYL)AMILORIDE] when you can.
Output: 11 µM
